Where these numbers come from: ChEMBL document CHEMBL4346699

# experimentalProtocol: Metabolic stability in rat microsomes assessed as parent compound remaining after 45 mins
# Format: ADME, Microsome
# measurementSetup: read-out: Stability
Would you kindly list remaining at 0.75 h for each of these compounds?
I only need the number, in %, no unit after it.

What value of remaining at 0.75 h has been reported for the following compound? "[2H]C([2H])([2H])C([2H])([2H])N1CCN(Cc2ccc(Nc3ncc(F)c(-c4cc(F)c5nc(C)n(C(C)C)c5c4)n3)nc2)CC1"
51.3

Consider the compound shown here: "[2H]c1nc(Nc2ncc(F)c(-c3cc(F)c4nc(C)n(C(C)C)c4c3)n2)c([2H])c([2H])c1CN1CCN(C([2H])([2H])C([2H])([2H])[2H])CC1" What is its recorded remaining at 0.75 h?
51.3

Reported remaining at 0.75 h, compound "[2H]C([2H])([2H])C([2H])([2H])N1C([2H])([2H])C([2H])([2H])N(Cc2ccc(Nc3ncc(F)c(-c4cc(F)c5nc(C)n(C(C)C)c5c4)n3)nc2)C([2H])([2H])C1([2H])[2H]" : ____
57.6

Recorded remaining at 0.75 h for "CCN1CCN(Cc2ccc(Nc3ncc(F)c(-c4cc(F)c5nc(C)n(C(C)C)c5c4)n3)nc2)CC1" , please?
45.6
